Data provenance: patent US20070155660A1

assay_target: MC4R (Homo sapiens, UniProt P32245)
Sequence (P32245 whole entry): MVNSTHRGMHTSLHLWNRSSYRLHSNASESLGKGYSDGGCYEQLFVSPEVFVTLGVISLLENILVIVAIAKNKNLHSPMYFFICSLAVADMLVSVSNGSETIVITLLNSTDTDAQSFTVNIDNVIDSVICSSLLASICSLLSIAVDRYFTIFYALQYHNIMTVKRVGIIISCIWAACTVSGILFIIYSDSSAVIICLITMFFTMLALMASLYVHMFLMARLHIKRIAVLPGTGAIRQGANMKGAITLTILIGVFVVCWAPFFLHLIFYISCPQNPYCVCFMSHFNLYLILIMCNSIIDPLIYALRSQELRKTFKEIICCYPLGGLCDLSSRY
test_summary: Competitive binding assay, [125I]-NDP-α-MSH, CHO cell membranes
Set-up: expressed in transfected cells; host or cells: Chinese hamster ovary (CHO) cells
assay_setup: ratio of IC50 hMC-3R / hMC-4R
Numbered stars: 1 amine (or outer) side, 2 acyl side, 3 side chain; on linkers, the order of the positions; unused ones are H or OH. Bridge positions count the residues as written; N and C are the ends. Square brackets hold non-standard residues; d marks the D form. Peptide text beside a SMILES is read from it. ξ: configuration not given here. dPhe(4-Cl) = N[C@H](Cc1ccc(Cl)cc1)C(=O)O; 2Nal = N[C@@H](Cc1ccc2ccccc2c1)C(=O)O; Suc = O=C(CCC(=O)[*:2])[*:1]; ξE = NC(CCC(=O)O)C(=O)O; ξDab = NCCC(N)C(=O)O; ξK = NCCCCC(N)C(=O)O; Ava = NCCCCC(=O)O
quantity_name: Selectivity Binding IC50 3R/4R
The response must contain the number and no unit.

For the compound N=C(N)NCCC[C@@H]1NC(=O)[C@@H](Cc2ccccc2)NC(=O)[C@H](Cc2c[nH]cn2)NC(=O)CCCCNC(=O)CCC(C(N)=O)NC(=O)[C@H](Cc2c[nH]c3ccccc23)NC1=O (some centres unmarked) [Example 6] ([Ava]H[dF]RW[ξE]-NH2; lactam N-6) , give its reported Selectivity Binding IC50 3R/4R.
48

For the compound N=C(N)NCCC[C@@H]1NC(=O)[C@@H](Cc2ccc(Cl)cc2)NC(=O)[C@H](Cc2c[nH]cn2)NC(=O)CCC(=O)NCCCCC(C(N)=O)NC(=O)[C@H](Cc2c[nH]c3ccccc23)NC1=O (some centres unmarked) [Example 4] (H[dPhe(4-Cl)]RW[ξK]-NH2; linker N-5 via Suc) , give its reported Selectivity Binding IC50 3R/4R.
10

For the compound N=C(N)NCCC[C@@H]1NC(=O)[C@@H](Cc2ccccc2)NC(=O)[C@H](Cc2c[nH]cn2)NC(=O)CCC(=O)NCCCCC(C(N)=O)NC(=O)[C@H](Cc2ccc3ccccc3c2)NC1=O (some centres unmarked) [Example 5] (H[dF]R[2Nal][ξK]-NH2; linker N-5 via Suc) , give its reported Selectivity Binding IC50 3R/4R.
33.85

For the compound N=C(N)NCCC[C@@H]1NC(=O)[C@@H](Cc2ccccc2)NC(=O)[C@H](Cc2c[nH]cn2)NC(=O)CNC(=O)CCC(C(N)=O)NC(=O)[C@H](Cc2c[nH]c3ccccc23)NC1=O (some centres unmarked) [Example 9] (GH[dF]RW[ξE]-NH2; lactam N-6) , give its reported Selectivity Binding IC50 3R/4R.
3.45

For the compound N=C(N)NCCC[C@@H]1NC(=O)[C@@H](Cc2ccccc2)NC(=O)[C@H](Cc2c[nH]cn2)NC(=O)CCC(=O)NCCC(C(N)=O)NC(=O)[C@H](Cc2c[nH]c3ccccc23)NC1=O (some centres unmarked) [Example 2] (H[dF]RW[ξDab]-NH2; linker N-5 via Suc) , give its reported Selectivity Binding IC50 3R/4R.
51.3

----------
assay_target: UniProt:P32245
test_summary: Competitive binding assay, [125I]-NDP-α-MSH, CHO cell membranes
Set-up: expressed in transfected cells; host or cells: Chinese hamster ovary (CHO) cells
assay_setup: ratio of IC50 hMC-5R / hMC-4R
Numbered stars: 1 amine (or outer) side, 2 acyl side, 3 side chain; on linkers, the order of the positions; unused ones are H or OH. Bridge positions count the residues as written; N and C are the ends. Square brackets hold non-standard residues; d marks the D form. Peptide text beside a SMILES is read from it. ξ: configuration not given here. dPhe(4-Cl) = N[C@H](Cc1ccc(Cl)cc1)C(=O)O; 2Nal = N[C@@H](Cc1ccc2ccccc2c1)C(=O)O; Suc = O=C(CCC(=O)[*:2])[*:1]; ξE = NC(CCC(=O)O)C(=O)O; ξDab = NCCC(N)C(=O)O; ξK = NCCCCC(N)C(=O)O; Ava = NCCCCC(=O)O; GABA = NCCCC(=O)O; βAla = NCCC(=O)O
quantity_name: Selectivity Binding IC50 5R/4R

For the compound N=C(N)NCCC[C@@H]1NC(=O)[C@@H](Cc2ccccc2)NC(=O)[C@H](Cc2c[nH]cn2)NC(=O)CCNC(=O)CC[C@@H](C(N)=O)NC(=O)[C@H](Cc2c[nH]c3ccccc23)NC1=O [Example 8] ([βAla]H[dF]RWE-NH2; lactam N-6 (inferred)) , give its reported Selectivity Binding IC50 5R/4R.
1150

For the compound N=C(N)NCCC[C@@H]1NC(=O)[C@@H](Cc2ccccc2)NC(=O)[C@H](Cc2c[nH]cn2)NC(=O)CNC(=O)CCC(C(N)=O)NC(=O)[C@H](Cc2c[nH]c3ccccc23)NC1=O (stereo partly shown) [Example 9] (GH[dF]RW[ξE]-NH2; lactam N-6) , give its reported Selectivity Binding IC50 5R/4R.
3.45

For the compound N=C(N)NCCC[C@@H]1NC(=O)[C@@H](Cc2ccccc2)NC(=O)[C@H](Cc2c[nH]cn2)NC(=O)CCC(=O)NCCCCC(C(N)=O)NC(=O)[C@H](Cc2ccc3ccccc3c2)NC1=O (stereo partly shown) [Example 5] (H[dF]R[2Nal][ξK]-NH2; linker N-5 via Suc) , give its reported Selectivity Binding IC50 5R/4R.
1538

For the compound N=C(N)NCCC[C@@H]1NC(=O)[C@@H](Cc2ccccc2)NC(=O)[C@H](Cc2c[nH]cn2)NC(=O)CCC(=O)NCCC(C(N)=O)NC(=O)[C@H](Cc2c[nH]c3ccccc23)NC1=O (stereo partly shown) [Example 2] (H[dF]RW[ξDab]-NH2; linker N-5 via Suc) , give its reported Selectivity Binding IC50 5R/4R.
205

For the compound N=C(N)NCCC[C@@H]1NC(=O)[C@@H](Cc2ccccc2)NC(=O)[C@H](Cc2c[nH]cn2)NC(=O)CCCCNC(=O)CCC(C(N)=O)NC(=O)[C@H](Cc2c[nH]c3ccccc23)NC1=O (stereo partly shown) [Example 6] ([Ava]H[dF]RW[ξE]-NH2; lactam N-6) , give its reported Selectivity Binding IC50 5R/4R.
750

For the compound N=C(N)NCCC[C@@H]1NC(=O)[C@@H](Cc2ccccc2)NC(=O)[C@H](Cc2c[nH]cn2)NC(=O)CCCNC(=O)CCC(C(N)=O)NC(=O)[C@H](Cc2c[nH]c3ccccc23)NC1=O (stereo partly shown) [Example 7] ([GABA]H[dF]RW[ξE]-NH2; lactam N-6) , give its reported Selectivity Binding IC50 5R/4R.
121.9

For the compound N=C(N)NCCC[C@@H]1NC(=O)[C@@H](Cc2ccc(Cl)cc2)NC(=O)[C@H](Cc2c[nH]cn2)NC(=O)CCC(=O)NCCCCC(C(N)=O)NC(=O)[C@H](Cc2c[nH]c3ccccc23)NC1=O (stereo partly shown) [Example 4] (H[dPhe(4-Cl)]RW[ξK]-NH2; linker N-5 via Suc) , give its reported Selectivity Binding IC50 5R/4R.
54
